Biological target: Adra2b (gene 24174) (UniProt P19328)
Sequence (P19328 whole entry, looked up): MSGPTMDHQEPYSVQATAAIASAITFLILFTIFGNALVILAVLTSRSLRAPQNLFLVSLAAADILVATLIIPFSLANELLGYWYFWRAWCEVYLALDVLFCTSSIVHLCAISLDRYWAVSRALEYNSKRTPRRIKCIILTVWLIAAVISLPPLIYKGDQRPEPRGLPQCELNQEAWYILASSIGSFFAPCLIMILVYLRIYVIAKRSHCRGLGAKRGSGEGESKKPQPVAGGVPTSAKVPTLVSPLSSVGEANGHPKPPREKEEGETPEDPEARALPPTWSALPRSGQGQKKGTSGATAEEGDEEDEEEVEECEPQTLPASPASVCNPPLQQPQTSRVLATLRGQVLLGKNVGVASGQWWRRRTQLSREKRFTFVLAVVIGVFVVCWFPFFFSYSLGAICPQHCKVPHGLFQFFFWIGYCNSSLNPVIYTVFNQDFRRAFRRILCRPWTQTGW
Test: NVS_GPCR_rmAdra2B: NovaScreen (NVS) G Protein-Coupled Receptor Assay for hybird cells Adrenergic, Alpha 2B Receptor (Adra2B) (AID 2283306)
Results filed as inconclusive are left out. Activity calls are given as the source filed them. The calls were made as follows: active = hit-call score of the fitted dose curve at least 0.9, where 1 is the maximum; inconclusive = response in the unintended direction; inactive = score below 0.9.
Your answer must be one of the following: y = active, n = inactive

structure_as_smiles=CCCCCCCC(=O)O target_under_test="Adra2b (gene 24174) (UniProt P19328)" category_label=n
structure_as_smiles=CCN(CC)CCNc1ccc(CNC=O)c2sc3ccc(OC)cc3c(=O)c12 target_under_test="Adra2b (gene 24174) (UniProt P19328)" category_label=y
structure_as_smiles=CC#C[C@]1(O)CC[C@H]2[C@@H]3CCC4=CC(=O)CCC4=C3[C@@H](c3ccc(N(C)C)cc3)C[C@@]21C target_under_test="Adra2b (gene 24174) (UniProt P19328)" category_label=y

Query :: # lookup: test call for NC(=O)N(O)[C@@H]1C=C[C@H](Oc2cccc(Oc3ccc(F)cc3)c2)C1
Result :: n

Query :: # fetch the recorded call for CCCCCCCCCCCCc1ccccc1S(=O)(=O)O here
Result :: y

====

Test: BSK_LPS_SRB: Viability Assessment in the BioMAP Diversity Plus: LPS Assay (AID 2283079);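 also: total protein by sulforhodamine B absorbance as a cytotoxicity measure; measured one day after compound addition; fitted in both directions against DMSO so loss or gain of signal counts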
Details: primary human HUVEC with PBMC
Activity calls are given as the source filed them. How the source made its calls: active means hit-call score of the fitted dose curve at least 0.9, where 1 is the maximum; inactive means score below 0.9.
Respond with a class label; see t = active, f = inactive

Query :: Hello, I am checking results. What call was entered for C=C(C)C(=O)OCCC(F)(F)C(F)(F)C(F)(F)C(F)(F)C(F)(F)C(F)(F)F ?
Result :: f

Query :: Assay outcome for CCCCCCC(=O)O : what was it?
Result :: f

Query :: How did this test come out for COc1ccc([N+](=O)[O-])cc1N ?
Result :: f

Query :: Per the assay record, what outcome was assigned to c1ccc2c(c1)Cc1ccccc1-2 ?
Result :: f

Query :: What did this assay record as the result for Oc1cc2ccccc2c2ccccc12 ?
Result :: t

====

Read-out: Interferon-gamma inducible Protein 10 (IP10), CXCL10 (gene 3627)
Assay: BSK_hDFCGF_IP10: BioMAP Diversity Plus: hDFCGF Assay for Interferon-gamma inducible Protein 10 (IP10) Biomarker Activity (AID 2283053)
Conditions: primary human foreskin fibroblasts; actives raise or lower the signal
The source made the active and inactive calls. Rule for the calls: active = hit-call score of the fitted dose curve at least 0.9, where 1 is the maximum; inactive = score below 0.9.
Give your call using only these classes: active, inactive

Solved cases (5 shown):
molecule=CCOC(=O)CC(O)(CC(=O)OCC)C(=O)OCC category_label=inactive
molecule=CN1CCC[C@H]1c1cccnc1 category_label=inactive
molecule=Cc1oc(-c2ccccc2)nc1CCOc1ccc(C[C@H](Nc2ccccc2C(=O)c2ccccc2)C(=O)O)cc1 category_label=active
molecule=CCCCCCCCCCCCCCCS(=O)(=O)Oc1ccccc1 category_label=inactive
molecule=CC1=C(/C=C/C(C)=C/C=C/C(C)=C/C(=O)O)C(C)(C)CCC1 category_label=active

Query :: What was the test verdict on NC(=O)N(O)[C@@H]1C=C[C@H](Oc2cccc(Oc3ccc(F)cc3)c2)C1 ?
Result :: active

Query :: Hi, sorry to bother you, what did the test record for CC#C[C@]1(O)CC[C@H]2[C@@H]3CCC4=CC(=O)CCC4=C3[C@@H](c3ccc(N(C)C)cc3)C[C@@]21C ?
Result :: inactive

Query :: Check the results log: what was the call for Oc1cccc(O)c1 ?
Result :: inactive

Query :: What call does the record list for CCCCCCCCOC(=O)CCCCCCCCC(=O)OCCCCCCCC ?
Result :: inactive

====

Experiment: APR_HepG2_StressKinase_72hr: Apredica 72-hour HepG2 Assay for Stress Kinase (AID 2282921)
Details: HepG2 stress kinase (phospho-c-Jun) imaging, actives raise or lower the signal
Calls of active or inactive are those of the source. Rule for the calls: active = hit-call score of the fitted dose curve at least 0.9, where 1 is the maximum; inactive = score below 0.9.
The reply should name one outcome from yes (1) = active, no (0) = inactive

molecule="COCC(C)O (stereo not given)" category_label="no (0)"
molecule="CCc1nn(C2CCCCC2)c2cc(C3(C#N)CCC(C(=O)O)CC3)ccc12 (stereo not given)" category_label="no (0)"
molecule=COc1ccc([N+](=O)[O-])cc1N category_label="no (0)"
molecule=Cc1oc(-c2ccccc2)nc1CCOc1ccc(C[C@H](Nc2ccccc2C(=O)c2ccccc2)C(=O)O)cc1 category_label="no (0)"
molecule=OCCC(F)(F)C(F)(F)C(F)(F)C(F)(F)C(F)(F)C(F)(F)F category_label="no (0)"
molecule="CCCCC(CC)COC(=O)CCCCC(=O)OCc1ccccc1 (stereo not given)" category_label="no (0)"
molecule=O=c1c(-c2ccc(O)cc2)coc2cc(O)ccc12 category_label="no (0)"
molecule=CCCCCCCCCCCCN1CCCC1=O category_label="yes (1)"

Query :: Check the results log: what was the call for CN1CCC[C@H]1c1cccnc1 ?
Result :: no (0)

Query :: I would be grateful if you could indicate the recorded call for Cc1cc(C)c(O)c(C)c1 .
Result :: no (0)

Query :: How was O=C(O)Cc1cc(I)c(Oc2cc(I)c(O)c(I)c2)c(I)c1 classified in this test?
Result :: no (0)

Query :: Entry C[C@@H]1C[C@H]2[C@@H]3CCC4=CC(=O)C=C[C@]4(C)[C@@]3(F)[C@@H](O)C[C@]2(C)[C@@]1(O)C(=O)COP(=O)(O)O : call = ?
Result :: no (0)

Query :: Hello, I am checking results. What call was entered for CCC(C)(C)C1CCC(O)CC1 (stereo not given) ?
Result :: no (0)

Query :: Field: outcome | Entry: NC(=O)N1C(=O)C(C(=O)c2cc(Cl)cs2)c2cc(F)c(Cl)cc21 (stereo not given)
Result :: yes (1)

Query :: Check the results log: what was the call for CCOC(=O)CC(O)(CC(=O)OCC)C(=O)OCC ?
Result :: no (0)

Query :: Would you mind telling me which call this test gave N#C[C@@H]1CC(F)(F)CN1C(=O)CNC1CC2CCC(C1)N2c1ncccn1 (stereo not given in full) ?
Result :: no (0)

====

Read-out: Collagen III, COL3A1 (gene 1281)
Assay: BSK_MyoF_CollagenIII: BioMAP Diversity Plus: MyoF Assay for Collagen III Biomarker Activity (AID 2284239)
Details: primary human lung fibroblasts
Activity calls are given as the source filed them. How the source made its calls: active means hit-call score of the fitted dose curve at least 0.9, where 1 is the maximum; inactive means score below 0.9.
Select the correct class. Options are true (1) for active, false (0) for inactive and nothing else.

structure_as_smiles=C=C(C)C(=O)OCCC(F)(F)C(F)(F)C(F)(F)C(F)(F)C(F)(F)C(F)(F)F category_label="false (0)"

Query :: Please share the test call associated with C[C@@H]1C[C@H]2[C@@H]3CCC4=CC(=O)C=C[C@]4(C)[C@@]3(F)[C@@H](O)C[C@]2(C)[C@@]1(O)C(=O)COP(=O)(O)O .
Result :: false (0)

Query :: Call for entry OCCC(F)(F)C(F)(F)C(F)(F)C(F)(F)C(F)(F)C(F)(F)F :
Result :: false (0)

Query :: GET /call?item= FC(F)(I)C(F)(F)C(F)(F)C(F)(F)C(F)(F)C(F)(F)I returns the recorded outcome of this test.
Result :: true (1)

Query :: Look up the recorded call for NCC(F)(F)C(F)(F)C(F)(F)C(F)(F)C(F)(F)C(F)(F)C(F)(F)F in this test.
Result :: false (0)

====

Read-out: Thrombomodulin, THBD (gene 7056)
Assay: BSK_CASM3C_Thrombomodulin: BioMAP Diversity Plus: CASM3C Assay for Thrombomodulin Biomarker Activity (AID 2283051);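 also: thrombomodulin protein level measured by ELISA 24 h after dosing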
Details: primary human coronary artery smooth muscle cells; actives raise or lower the signal
Activity calls are given as the source filed them. Rule for the calls: active = hit-call score of the fitted dose curve at least 0.9, where 1 is the maximum; inactive = score below 0.9.
Reply using exactly one outcome from y (active), n (inactive)

Answered cases to consult:
compound=CCCCCCCCCCCCN1CCCC1=O category_label=y
compound=Oc1cc2ccccc2c2ccccc12 category_label=n
compound=ClC1=C(Cl)C(Cl)(Cl)C(Cl)=C1Cl category_label=n
compound="NC(=O)N1C(=O)C(C(=O)c2cc(Cl)cs2)c2cc(F)c(Cl)cc21 (centres undefined)" category_label=n
compound=CCCCCCCC(=O)O category_label=n
compound=Oc1cccc(O)c1 category_label=n
compound=CCCOc1sc(C(=O)N2CCC(c3cc(CN)ccc3F)CC2)c(C)c1Br category_label=y
compound="CCCCC(CC)COC(=O)CCCCC(=O)OCC(CC)CCCC (centres undefined)" category_label=n

Consider the additional compound presented here.
Query :: # lookup: test call for CC[C@H](c1ccc(O)cc1)[C@@H](CC)c1ccc(O)cc1
Result :: n

====

Target: PGR (gene 5241) (UniProt P06401)
Sequence (P06401 whole entry, looked up): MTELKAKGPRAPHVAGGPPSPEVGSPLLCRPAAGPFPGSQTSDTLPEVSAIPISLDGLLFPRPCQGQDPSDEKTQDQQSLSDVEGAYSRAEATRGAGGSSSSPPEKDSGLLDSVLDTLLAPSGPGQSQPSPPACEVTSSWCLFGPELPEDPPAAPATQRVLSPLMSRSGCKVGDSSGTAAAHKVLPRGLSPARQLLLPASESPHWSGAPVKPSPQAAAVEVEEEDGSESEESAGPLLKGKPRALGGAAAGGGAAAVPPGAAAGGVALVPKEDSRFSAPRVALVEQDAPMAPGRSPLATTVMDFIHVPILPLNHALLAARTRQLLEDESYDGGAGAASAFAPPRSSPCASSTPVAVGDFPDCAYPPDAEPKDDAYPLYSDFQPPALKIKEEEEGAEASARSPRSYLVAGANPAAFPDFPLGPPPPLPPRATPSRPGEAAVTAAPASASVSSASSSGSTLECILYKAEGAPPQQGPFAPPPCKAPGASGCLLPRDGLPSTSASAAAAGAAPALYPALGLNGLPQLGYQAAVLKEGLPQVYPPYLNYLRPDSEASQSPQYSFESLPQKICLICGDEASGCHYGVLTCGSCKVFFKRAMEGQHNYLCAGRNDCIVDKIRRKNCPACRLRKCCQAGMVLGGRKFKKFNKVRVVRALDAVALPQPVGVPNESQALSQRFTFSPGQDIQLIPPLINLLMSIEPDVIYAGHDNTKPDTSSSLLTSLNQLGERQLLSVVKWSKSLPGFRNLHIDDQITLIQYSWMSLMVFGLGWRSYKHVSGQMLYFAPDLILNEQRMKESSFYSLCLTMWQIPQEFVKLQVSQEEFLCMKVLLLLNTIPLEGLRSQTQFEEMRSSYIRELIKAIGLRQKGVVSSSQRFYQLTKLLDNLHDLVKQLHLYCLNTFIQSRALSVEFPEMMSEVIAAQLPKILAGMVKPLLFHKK
Assay: NVS_NR_hPR: NovaScreen (NVS) Nuclear Receptor Binding Assay for human Progestron Receptor (PR) (AID 2283360);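 also: active means loss of bound radioligand signal versus DMSO baseline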
Inconclusive results are not listed. Activity calls are given as the source filed them. Rule for the calls: active = hit-call score of the fitted dose curve at least 0.9, where 1 is the maximum; inconclusive = response in the unintended direction; inactive = score below 0.9.
Hi there, use one of these labels in your reply, thanks! yes for active, no for inactive

Consider the worked cases shown below.
structure_as_smiles=Cc1cc(CCN2CCN(c3nsc4ccccc34)CC2)cc2c1NC(=O)CC2(C)C category_label=yes
structure_as_smiles=Nc1cccc2c(N)cccc12 category_label=no
structure_as_smiles=NC(=O)N(O)[C@@H]1C=C[C@H](Oc2cccc(Oc3ccc(F)cc3)c2)C1 category_label=no

Query :: # lookup: test call for Oc1cc2ccccc2c2ccccc12
Result :: yes

Query :: Hey, what did the test say about C=C(C)C(=O)OCCC(F)(F)C(F)(F)C(F)(F)C(F)(F)C(F)(F)C(F)(F)F ?
Result :: no

Query :: What did this assay record as the result for CCCCCCCC(=O)O ?
Result :: no

Query :: Hello, I am checking results. What call was entered for CC[C@H](C)[C@@H](C(=O)O)n1sc2ccccc2c1=O ?
Result :: no

All figures here come from PubChem BioAssay (EPA / NIEHS).
